Item-by-item account of z-score
assay: CREB reporter modulators under forskolin, primary screen, cell-based, PC12, CRE-LacZ reporter, forskolin-stimulated (AID 1146); conditions: luminescence, 4.5 h, higher = more signal, called active from +8 up or from −8 down;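 note: PC12 cells with 6xCRE LacZ reporter stimulated by forskolin 10 µM; beta-galactosidase reporter signal reflecting CREB driven transcription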
I only need the number, thanks.

| molecule | z-score |
| --- | --- |
| COc1ccc(C#Cc2ccc3c(c2)[C@]2(C(=O)N3)[C@H](C(=O)NC[C@H](O)c3ccccc3)[C@H]3C(=O)O[C@H](c4ccccc4)[C@H](c4ccccc4)N3[C@@H]2c2ccc(OCCO)cc2)cc1 | -0.447 |
| COc1ccccc1CN1C(=O)c2ccccc2[C@@H](C(=O)NCCN2CCOCC2)[C@@H]1c1ccc(CO)cc1 | -1.09 |
| O=C(CS)NCCCCCCNC(=O)[C@@H]1C[C@@H]2C(=O)N3CCC[C@H]3C(=O)N2[C@@H]1c1ccc(O)cc1 | -0.972 |
| C=CC[C@@H](OC(=O)Nc1ccc(OC)cc1)c1ccc(O)c2ccccc12 | 4.3 |

// next item, z-score requested
// lookup z-score for Cc1ccc(S[C@]2(C(=O)NC3CC3)CC(=O)N(Cc3ccccc3)[C@@H]2c2ccc(CO)cc2)cc1
0.473

* * *

test: basal 3T3-L1 adipocyte mitochondrial potential changes, profiling panel, cell-based, JC-1 fluorescence, 3T3-L1 adipocytes, 24 h, 100 nL compound (AID 1168); conditions: JC-1 mitochondrial fluorescence, higher = more signal, called active from +8 up or from −8 down; note: test concentration not given here
measured-quantity: z-score
// print number alone

Here's what some known entries look like.
| compound | measured-quantity | value-measured |
| --- | --- | --- |
| Cc1ccc(S[C@]2(C(=O)NCc3ccccc3)CC(=O)N(Cc3ccccc3)[C@@H]2c2ccc(CO)cc2)cc1 | z-score | 0.645 |
| CCCCCN1CC=CC23O[C@@H]4/C=C\CCCOC(=O)C4[C@H]2C(=O)N(CCCCCCO)[C@@H]3C1=O (some centres undefined) | z-score | -0.462 |
| CC(C)c1ccc(NN2C(C(O)c3cccc(O)c3)C=CC3C(=O)N(c4ccccc4)C(=O)C32)cc1 (centres undefined) | z-score | -0.948 |

Now for the compound whose z-score we want.
Using the record for COC(=O)C(CC#Cc1ccc2c(c1)[C@]1(C(=O)N2)[C@H](c2ccc(OCCO)cc2)N2[C@H](c3ccccc3)[C@H](c3ccccc3)OC(=O)[C@H]2[C@@H]1C(=O)NC[C@H](O)c1ccccc1)C(=O)OC , report its z-score.
0.833

* * *

test: small-molecule microarray binders of probe aXIP, primary screen, biochemical, NeuroSMM set, 635/667 nm fluorescence (AID 1119); settings: higher = more signal, called active from +8 up or from −8 down;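 note: probe is the protein aXip251-270 applied at 1 µg/mL to compound-printed slides; binding of probe to printed compounds measured as 667 nm fluorescence plus signal to noise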
measured-quantity: composite Z-score
Hey, just send me the number, nothing else.

| compound | composite Z-score |
| --- | --- |
| CCOC(=O)C1=CCC(c2ccc([N+](=O)[O-])cc2)N(S(=O)(=O)c2ccc(C)cc2)C1 (stereo not drawn) | 0.448 |

Name the reported composite Z-score value associated with the compound CC(=O)Nc1cc(Br)ccc1C(=O)O
-0.705

* * *

experiment: A549 cell viability effects, profiling panel, calcein-AM fluorescence, 48 h, basal (AID 1162); settings: higher = more signal; note: test concentration not given here
measured-quantity: z-score
Just the number, please, no unit attached.

| compound | z-score |
| --- | --- |
| COCCOC(=O)N1C(=O)[C@@]2(c3ccccc31)[C@H](c1ccc(O)cc1)N1[C@H](c3ccccc3)[C@H](c3ccccc3)OC(=O)[C@H]1[C@@H]2C(=O)N1CCc2cc(OC)c(OC)cc2C1 | 0.823 |

Return reported z-score; argument: CC(=O)Nc1cc(Br)ccc1C(=O)O
0.665

Consider the compound shown here: COc1cccc(C(=O)O[C@H]2CC[C@]3(C)C4=C(CCC3C2(C)C)[C@]2(C)CC[C@H]([C@H](C)CCCC(C)C)[C@@]2(C)CC4)c1 (stereo partly drawn) What is its recorded z-score?
0.583

Reported z-score for O=C1OCC=C[C@H]2OC34C=CCN(c5ccc(Cl)cc5)C(=O)[C@H]3N(CCCCCCO)C(=O)[C@@H]4[C@@H]12 (stereo partly drawn) : what is it?
0.32

Name the recorded z-score for COC(=O)[C@@]1(Cc2ccccc2)[C@H]2c3cc(C(=O)N4CCCC4)n(Cc4ccc(C)o4)c3C[C@H]2CN1C(=O)c1ccccc1 .
-1.25

Reported z-score, compound Cc1c(NC(=O)CC#N)c(=O)n(-c2ccccc2)n1C : ____
1.62

Need z-score of Cc1cc(C)cc(N2C(=O)CS(=O)(=O)C2c2cccc([N+](=O)[O-])c2)c1 (stereo not drawn) , thanks.
1.26

What value of measured z-score is listed for COCCOC(=O)N1C(=O)[C@@]2(c3ccccc31)[C@H](C(=O)Nc1nc3ccccc3s1)[C@H]1C(=O)O[C@H](c3ccccc3)[C@H](c3ccccc3)N1[C@@H]2c1ccc(OCCO)cc1 ?
-0.257

* * *

molecular target: Torsin-1A-interacting protein 2 (Homo sapiens) (UniProt Q8NFQ8); assay: LULL1 binders on small-molecule microarray, primary screen, cell lysate, human LULL1 lysate, 635/667 nm fluorescence (AID 1092); conditions: hLULL1 lysate binding, 635 nm fluorescence, higher = more signal;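 note: probe is lysate of COS7 cells overexpressing human LULL1; score merges per-feature 667 nm fluorescence with signal-to-noise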
Sequence (Q8NFQ8 whole entry, looked up): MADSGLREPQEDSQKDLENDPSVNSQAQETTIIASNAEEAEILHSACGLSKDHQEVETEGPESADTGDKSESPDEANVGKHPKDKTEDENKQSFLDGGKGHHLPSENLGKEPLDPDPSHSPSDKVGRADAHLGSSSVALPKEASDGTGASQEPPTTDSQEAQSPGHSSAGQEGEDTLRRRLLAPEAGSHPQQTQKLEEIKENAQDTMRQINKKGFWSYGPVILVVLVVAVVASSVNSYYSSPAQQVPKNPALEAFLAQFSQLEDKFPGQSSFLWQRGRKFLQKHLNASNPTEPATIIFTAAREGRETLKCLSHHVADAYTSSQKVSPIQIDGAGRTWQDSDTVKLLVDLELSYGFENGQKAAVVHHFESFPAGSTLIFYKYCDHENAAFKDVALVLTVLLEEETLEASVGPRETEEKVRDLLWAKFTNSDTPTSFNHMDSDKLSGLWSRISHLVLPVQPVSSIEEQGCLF
measured-quantity: composite z-score
// return a plain number; no unit text

Provide the documented composite z-score with Torsin-1A-interacting protein 2 (Homo sapiens) (UniProt Q8NFQ8) as the system for O=C1OCCC=C[C@H]2OC34C=CCN(Cc5ccccc5)C(=O)[C@H]3N(CCCO)C(=O)[C@@H]4C12 (stereo partly drawn)
0.549

What value of composite z-score on Torsin-1A-interacting protein 2 (Homo sapiens) (UniProt Q8NFQ8) does CCCCC=C[C@@H](NC(=O)c1cccs1)c1ccccc1 have?
2.01

What is its composite z-score for Torsin-1A-interacting protein 2 (Homo sapiens) (UniProt Q8NFQ8)? Entry: CC(c1ccccc1)C(O)C1C=CC2C(=O)NC(=O)C2N1Nc1ccccn1 (stereo not drawn)
1.52

Give the reported composite z-score for COCCOC(=O)N1C(=O)[C@@]2(c3cc(C#CCNC(N)=O)ccc31)[C@H](c1ccc(OCCO)cc1)N1[C@H](c3ccccc3)[C@H](c3ccccc3)OC(=O)[C@H]1[C@@H]2C(=O)N1CCc2cc(OC)c(OC)cc2C1 (system: Torsin-1A-interacting protein 2 (Homo sapiens) (UniProt Q8NFQ8)).
0.816

Item CS(=O)(=O)CCOC(=O)C1=CC(c2ccc(CO)cc2)=CC(C2CC2)N(Cc2cc3c(cc2Br)OCO3)C=C1C(=O)OCCS(C)(=O)=O (stereo not drawn) with Torsin-1A-interacting protein 2 (Homo sapiens) (UniProt Q8NFQ8) - composite z-score?
2.83

Record lookup: for Torsin-1A-interacting protein 2 (Homo sapiens) (UniProt Q8NFQ8), what composite z-score belongs to CN1C(=O)C2C=CC(C(O)c3ccccn3)N(Nc3ccccc3)C2C1=O (stereo not drawn) ?
0.68

Field: composite z-score (Torsin-1A-interacting protein 2 (Homo sapiens) (UniProt Q8NFQ8)). Entry: COCCOC(=O)N1C(=O)[C@@]2(c3cc(C#CC4(O)CCCCCC4)ccc31)[C@H](C(=O)N1CCCCCCC1)[C@H]1C(=O)O[C@H](c3ccccc3)[C@H](c3ccccc3)N1[C@@H]2c1ccccc1OCCO
3.22

Give Torsin-1A-interacting protein 2 (Homo sapiens) (UniProt Q8NFQ8) composite z-score for COC(=O)[C@@]1(Cc2ccccc2)[C@H]2c3cc(C(=O)N4CCCC4)n(C)c3C[C@H]2CN1C(=O)c1ccccc1
3.35

* * *

Readings of z-score for the listed compounds
assay: basal HepG2 mitochondrial membrane potential changes, profiling panel, cell-based, JC-1 fluorescence, 24 h, 100 nL compound (AID 1167); conditions: higher = more signal; note: test concentration not given here
Kindly provide the number alone.

| compound | z-score |
| --- | --- |
| N#Cc1ccc(NN2C(C(O)c3ccc([N+](=O)[O-])cc3)C=CC3C(=O)N(c4ccccc4)C(=O)C32)cc1 (configuration not stated) | -1.91 |

Quick check: z-score of [N-]=[N+]=NCc1ccccc1C[C@]1(C(=O)NCC(O)CO)N=C(c2ccc(OCCCO)cc2)O[C@H]1c1ccccc1N=[N+]=[N-] (some centres not stated) ?
0.0849

Would you kindly share the measured z-score for CCOC(=O)C[C@H]1[C@H](OC(=O)c2ccc(-c3ccccc3)cc2)[C@@H](NC(=O)c2ccc(-c3ccccc3)cc2)c2cc(OCCCO)ccc2N1C(=O)Cc1ccc(OC)cc1 ?
1.15

What value of z-score has been reported for the following compound? COCCOC(=O)N1C(=O)[C@@]2(c3cc(C#CCCO)ccc31)[C@H](c1ccccc1OCCO)N1[C@H](c3ccccc3)[C@H](c3ccccc3)OC(=O)[C@H]1[C@@H]2C(=O)N1CCN(c2ncccn2)CC1
0.609

Returns the measured z-score for the input compound. Input: CC(C)(C)OC(=O)CC[C@]1(C(=O)N2CCCCC2)N=C(c2ccc(OCCCO)cc2)O[C@H]1c1ccccc1N=[N+]=[N-]
1.18

Fill in: z-score of C=C(COC)C(=O)CC[C@H](OC(C)=O)c1cccc(OCCO)c1 is ___
-0.331

What value of measured z-score is listed for CCN(CC)c1ccc(N2CC=CC34O[C@@H]5/C=C\CCCOC(=O)C5[C@H]3C(=O)N(C(CO)C(C)C)[C@@H]4C2=O)cc1 (some centres not stated) ?
-0.243
